# Experimental Target: Human KCNQ2/3 channel (Homo sapiens (Human), UniProt O43525+O43526)
# Assay Text: Opening action with respect to KCNQ2/3 channel by depolarization stimulation (thallium influx, FLIPR)
# Measurement Setup: concentration giving 50% of maximum reaction of retigabine (10 μM); human KCNQ2/3 expression CHO-DHFR- cells; 5 mM potassium and 0.5 mM thallium; read-out: KCNQ2/3 ECrtg50
Readout Name: pEC50
// pEC50 here means minus log10 of the molar concentration (mol/L)

Recorded pEC50, per entry:
Cc1cc(C(O)C(F)(F)F)ccc1NC(=O)NCc1ccc(C(F)(F)F)cn1 (centres unmarked)	5.77
CC(O)(c1cc(Cl)c(NC(=O)NCc2cccc(N3CCCCC3)n2)c(Cl)c1)C(F)(F)F (centres unmarked)	6.30
C[C@](O)(c1cc(Cl)c(NC(=O)NCc2nc(C(F)(F)F)no2)c(Cl)c1)C(F)(F)F	7.40
Cc1cccnc1CNC(=O)Nc1c(Cl)cc(C(C)(O)C(F)(F)F)cc1Cl (centres unmarked)	6.30
CC(C)[C@@H](C)NC(=O)Nc1c(Cl)cc(C(C)(O)C(F)(F)F)cc1Cl (some centres unmarked)	7.15
C[C@](O)(c1cc(Cl)c(NC(=O)NCc2ccc(OCC(F)(F)F)nc2)c(Cl)c1)C(F)(F)F	7.22
CC(O)(c1cc(Cl)c(NC(=O)NCc2cc3cc(F)ccc3[nH]2)c(Cl)c1)C(F)(F)F (centres unmarked)	6.22

Moving on to another molecule below.
[Q] Fill in: pEC50 of `C[C@@](O)(c1cc(Cl)c(NC(=O)NCc2nc(C(F)(F)F)no2)c(Cl)c1)C(F)(F)F` is ___
[A] 8.00

* * *

# Experimental Target: Human KCNQ2/3 channel (Homo sapiens (Human), UniProt O43525+O43526)
# Assay Text: Opening action with respect to KCNQ2/3 channel by depolarization stimulation (thallium influx, FLIPR)
# Measurement Setup: concentration giving 50% of maximum reaction of retigabine (10 μM); human KCNQ2/3 expression CHO-DHFR- cells; 5 mM potassium and 0.5 mM thallium; read-out: KCNQ2/3 ECrtg50
# Procedure: Human KCNQ2/3 expression cells (CHO-DHFR-cells) were seeded in each well of 384 well plate (collagen-coated, black, clear bottom) at 0.5×10^4 cells/50 μL per well, and cultured in a MEM ALPHA medium (containing 10 vol % inactivated (56° C., 30 min) Fetal Bovine Serum and 100 IU/mL Penicillin—100 μg/mL Streptomycin—2 mM L-Glutamine) at 37° C. in 5% CO2 for 18 to 24 hours. The medium in the plate was removed. […]
pEC50: −log10 of the molar value.
Tag: 1 if measured pEC50 is not below 7, 0 if it is.

CC(O)(c1cc(Cl)c(NC(=O)CCc2ccc(F)cc2)c(Cl)c1)C(F)(F)F (stereo not shown) [Example 50 (2)]	1
C[C@@](O)(c1cc(Cl)c(NC(=O)NCc2ccc(C(F)(F)F)nc2)c(Cl)c1)C(F)(F)F [Example 22 (3)]	0
CC(O)(c1cc(Cl)c(NC(=O)Cc2ccc(F)cc2)c(Cl)c1)C(F)(F)F (stereo not shown) [Example 50 (1)]	1
CC(O)(c1cc(Cl)c(NC(=O)NCc2ccc(C(F)(F)F)cn2)c(Cl)c1)C(F)F (stereo not shown) [Example 75]	0
CC(O)(c1cc(Cl)c(NC(=O)NCc2nc(C3CC3)no2)c(Cl)c1)C(F)(F)F (stereo not shown) [Example 5 (22)]	0
COC(C)(c1cc(Cl)c(NC(=O)NCc2ccc(C(F)(F)F)cn2)c(Cl)c1)C(F)(F)F (stereo not shown) [Example 71]	0

[Q] Could you verify whether the entry C[C@@](O)(c1cc(Cl)c(NC(=O)NCc2ccc(C(F)(F)F)cn2)c(Cl)c1)C(F)(F)F [Example 22 (1)] shows pEC50 of no less than 7?
[A] 1

* * *

# Experimental Target: Human KCNQ2/3 channel (Homo sapiens (Human), UniProt O43525+O43526)
# Assay Text: Opening action with respect to KCNQ2/3 channel by depolarization stimulation (thallium influx, FLIPR)
# Type: cell-based
# Measurement Setup: concentration giving 50% of maximum reaction of retigabine (10 μM); human KCNQ2/3 expression CHO-DHFR- cells; 5 mM potassium and 0.5 mM thallium; read-out: KCNQ2/3 ECrtg50
# note: exactly 100 nM is not below, so it is No; use Yes for EC50 strictly under it

CC(O)(c1cc(Cl)c(NC(=O)NCC2(O)CCC(F)(F)CC2)c(Cl)c1)C(F)(F)F (stereo not shown) [Example 5 (6)]	No
CC(O)(CC(F)(F)F)c1cc(Cl)c(NC(=O)NCc2ccc(C(F)(F)F)cn2)c(Cl)c1 (stereo not shown) [Example 67]	No
CC(O)(c1cc(Cl)c(NC(=O)CCc2cccc(C(F)(F)F)c2)c(Cl)c1)C(F)(F)F (stereo not shown) [Example 50 (6)]	Yes

[Q] hey, is EC50 for NC(c1cc(Cl)c(NC(=O)NCc2cnc(C(F)(F)F)s2)c(Cl)c1)C(F)(F)F (stereo not shown) [Example 79 (4)] lower than 100 nM or not?
[A] No

[Q] hey, is EC50 for CC(O)(c1ccc(NC(=O)NCc2ccc(C(F)(F)F)cn2)cc1)C(F)(F)F (stereo not shown) [Comparative Example 1, reference compound] lower than 100 nM or not?
[A] No

[Q] hey, is EC50 for CC(O)(c1cc(Cl)c(NC(=O)NCc2ccc(Cl)s2)c(Cl)c1)C(F)(F)F (stereo not shown) [Example 5 (8)] lower than 100 nM or not?
[A] Yes

[Q] hey, is EC50 for CC(O)(c1cc(Cl)c(NC(=O)NCc2cc(-c3ccccc3)on2)c(Cl)c1)C(F)(F)F (stereo not shown) [Example 5 (16)] lower than 100 nM or not?
[A] Yes

[Q] hey, is EC50 for CC(O)(c1cc(Cl)c(NC(=O)NCc2ccc(C(F)(F)F)o2)c(Cl)c1)C(F)(F)F (stereo not shown) [Example 5 (17)] lower than 100 nM or not?
[A] Yes

[Q] hey, is EC50 for O=C(NCc1cnc(C(F)(F)F)nc1)Nc1c(Cl)cc([C@H](O)C(F)(F)F)cc1Cl [Example 35 (3)] lower than 100 nM or not?
[A] No

[Q] hey, is EC50 for CC(O)(c1cc(Cl)c(NC(=O)NCc2ncccc2C(F)(F)F)c(Cl)c1)C(F)(F)F (stereo not shown) [Example 5 (9)] lower than 100 nM or not?
[A] No

[Q] hey, is EC50 for NC(c1cc(Cl)c(NC(=O)NCc2ccc(C(F)(F)F)cn2)c(Cl)c1)C(F)(F)F (stereo not shown) [Example 79 (1)] lower than 100 nM or not?
[A] No

* * *

# solubility at 5 h values compiled below
# Assay Text: Solubility test (DMSO precipitation method, Pharmacopoeia of Japan elution test second solution)
# Format: physicochemical
# Measurement Setup: aqueous buffer, kinetic from dmso stock; Pharmacopoeia of Japan elution test second solution pH=6.8, room temperature, five hours; quantitation range 5 to 100 μM
Value expressed in µM; do not type the unit.

Recorded solubility at 5 h, per entry:
CC(O)(c1cc(Cl)c(NC(=O)NCc2nc(C3CC3)no2)c(Cl)c1)C(F)(F)F (centres unmarked)	85
CC(C)(C)c1cc(CNC(=O)Nc2c(Cl)cc(C(C)(O)C(F)(F)F)cc2Cl)no1 (centres unmarked)	69
CC(O)(c1cc(Cl)c(NC(=O)Cc2ccc(F)cc2)c(Cl)c1)C(F)(F)F (centres unmarked)	82
O=C(NCc1cnc(C(F)(F)F)nc1)Nc1c(Cl)cc([C@@H](O)C(F)(F)F)cc1Cl	100

[Q] Fill in: solubility at 5 h of `C[C@@](O)(c1cc(Cl)c(NC(=O)NCc2nc(C(F)(F)F)no2)c(Cl)c1)C(F)(F)F` is ___
[A] 46

* * *

# solubility at 5 h values compiled below
# Assay Text: Solubility test (DMSO precipitation method, Pharmacopoeia of Japan elution test second solution)
# Format: physicochemical
# Measurement Setup: aqueous buffer, kinetic from dmso stock; Pharmacopoeia of Japan elution test second solution pH=6.8, room temperature, five hours; quantitation range 5 to 100 μM
# Method: A calibration curve solution was prepared by diluting a test substance (10 mM DMSO solution) with acetonitrile and adding acetonitrile including an internal standard substance (candesartan) so as to be 0.1, 0.4, and 2 μM. […] The calibration curve and sample solutions in the amount of 5 μL were infused into LC-MS/MS (Discovery Max manufactured by Thermo Scientific) and subjected to quantitation (quantitation range: 5 to 100 μM).
Value expressed in µM; do not type the unit.

Recorded solubility at 5 h, per entry:
C[C@@](O)(c1cc(Cl)c(NC(=O)NCc2ncc(C(F)(F)F)cn2)c(Cl)c1)C(F)(F)F	89
C[C@@](O)(c1cc(Cl)c(NC(=O)NCc2ccc(C(F)(F)F)nc2)c(Cl)c1)C(F)(F)F	81
O=C(NCc1cnc(C(F)(F)F)nc1)Nc1c(Cl)cc([C@H](O)C(F)(F)F)cc1Cl	87
C[C@](O)(c1cc(Cl)c(NC(=O)NCc2ccc(C(F)(F)F)nc2)c(Cl)c1)C(F)(F)F	86
CC(O)(c1cc(Cl)c(NC(=O)NCc2ncc(C(F)(F)F)cn2)c(Cl)c1F)C(F)(F)F (stereo not shown)	89

[Q] Fill in: solubility at 5 h of CC(O)(c1cc(Cl)c(NC(=O)NCCC(F)(F)F)c(Cl)c1)C(F)(F)F (stereo not shown) is ___
[A] 76

[Q] Fill in: solubility at 5 h of `C[C@](O)(c1cc(Cl)c(NC(=O)NCc2ccc(Cl)cn2)c(Cl)c1)C(F)(F)F` is ___
[A] 98
